Every entry's value here was drawn from ChEMBL document CHEMBL5058577.

- Tested on: HEK-293T
- experimental.protocol: Multiplex assay against HEK293T
- Format: toxicity, cell-based
- experimental.setup: human, 48 h, 10 µM, compound concentration 10 uM, replicate 2
// reported Population Apoptotic (%) for each item listed
Quick reminder: number only, in %, skip the unit.

The examples below pair each entry with its known result.
{"compound": "CSc1nc(NC2CCCC2)c([N+](=O)[O-])c(NC2CCCC2)n1 [GS-39783]", "Population Apoptotic (%)": 30}
{"compound": "COc1cc2nc(N3CCN(C(=O)COc4c(OC)cccc4C(C)C)CC3)nc(N)c2cc1OC.Cl.Cl", "Population Apoptotic (%)": 30}

Briefly, Population Apoptotic (%) measured for Cc1cc(NC(=O)NCCN2CCC(O)(Cc3ccccc3)CC2)c2ccccc2n1 [PALOSURAN] : 41
